target-entity: T1, Recombinant human MASP1 enzyme (fragment corresponding to amino acids 297-699, C-terminal His Tag) (human, UniProt P48740 297-699)
T1 sequence: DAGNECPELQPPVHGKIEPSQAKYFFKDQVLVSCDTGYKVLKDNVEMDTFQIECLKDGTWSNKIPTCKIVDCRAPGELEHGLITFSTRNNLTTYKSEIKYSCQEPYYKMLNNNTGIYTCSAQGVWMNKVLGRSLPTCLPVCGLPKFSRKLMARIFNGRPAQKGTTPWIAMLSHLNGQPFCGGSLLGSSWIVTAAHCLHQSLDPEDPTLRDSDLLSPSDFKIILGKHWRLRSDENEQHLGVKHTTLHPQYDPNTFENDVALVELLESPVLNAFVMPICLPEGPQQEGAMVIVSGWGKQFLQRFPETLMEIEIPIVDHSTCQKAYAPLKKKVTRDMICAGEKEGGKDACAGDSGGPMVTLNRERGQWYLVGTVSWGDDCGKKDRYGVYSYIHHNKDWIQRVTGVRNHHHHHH
experimental-details: cell-based or functional assay
Bridge positions count the residues as written; N and C are the ends. Square brackets hold non-standard residues; d marks the D form. Ends that are not written are not given here. tBuAla = CC(C)(C)C[C@H](N)C(=O)O; 4Amb = NCc1ccc(C(=O)O)cc1; NMeC = CN[C@@H](CS)C(=O)O
observed-property: human MASP1 IC50 (nM)
# value in nM; strip the unit string

Inquiry: Identify measured human MASP1 IC50 corresponding to [4Amb]ICSRS[tBuAla]PPI[NMeC]IPD-NH2 (disulfide 3-11; N-terminus assumed; SMILES CC[C@H](C)[C@H](NC(=O)c1ccc(CN)cc1)C(=O)N[C@H]1CSSC[C@@H](C(=O)N[C@H](C(=O)N2CCC[C@H]2C(=O)N[C@@H](CC(=O)O)C(N)=O)[C@@H](C)CC)N(C)C(=O)[C@H]([C@@H](C)CC)NC(=O)[C@@H]2CCCN2C(=O)[C@@H]2CCCN2C(=O)[C@H](CC(C)(C)C)NC(=O)[C@H](CO)NC(=O)[C@H](CCCNC(=N)N)NC(=O)[C@H](CO)NC1=O) [(4-(Aminomethyl)benzoic acid)-IC+SRS-((tBu)A)-PPI-((N-Me)C)+IPD-NH2]
Reply text: 8.1

Just for reference, patent US20210246166A1 is where these values come from.
